Tested on: SNB-75
ASSAY METHOD TEXT: NCI tumour cell line growth inhibition, 48 h
Counter-ions that a name gives are not always drawn. The source made the active and inactive calls. Cut-off read from the data, not from the text of the source: active = GI50 up to about 1.1 µM and inactive = higher.
// reported GI50 per item

# example entries with known answers
COc1ccc(C2CC(C)(O)Oc3cc4c(cc32)OCO4)cc1 (stereo not drawn) = 29.7 µM (inactive)
CNNCc1ccc(C(=O)NC(C)C)cc1 [PROCARBAZINE HYDROCHLORIDE] = 435 µM (inactive)

Alright, here's another molecule for you.
So what GI50 did Cc1ccc([S+]([O-])c2sccc2C=O)cc1 (stereo not drawn) get with SNB-75?
33.9 µM (inactive)

====

System: HOP-92
ASSAY METHOD TEXT: NCI tumour cell line growth inhibition, 48 h
Calls of active or inactive are those of the source. Cut-off read from the data, not from the text of the source: active = GI50 up to about 1.1 µM and inactive = higher.
// reported GI50 per item

# example entries with known answers
Cc1ccc(OCC2OC(n3cnc4c(N(C)C)nc(Br)nc43)CC2Oc2ccc(C)cc2)cc1 (stereo not drawn) = > 100 µM (inactive)
CCOC(=O)COc1cc(-c2ccccc2)nc2cc(F)ccc12 = 52 µM (inactive)
O=C(O)CC1(CC(=O)O)Nc2ccccc2SC1=O = > 100 µM (inactive)
CC(=O)O[C@@H]1CC(C)C2CC2C2=C(C(O)OC2O)[C@@H]1C(C)CCC=C(C)C (stereo partly drawn) = 12.8 µM (inactive)
Cc1ccc(-c2c(C#N)c(-c3ccc(Cl)cc3)c(C#N)c(=O)n2NS(=O)(=O)c2ccccc2)cc1 = 25.2 µM (inactive)
Clc1cc(Cl)ncn1 = > 100 µM (inactive)

Please give the measured GI50 for this molecule: O=C(O)C1c2ccccc2C(C(=O)O)c2ccccc21 (stereo not drawn)
> 100 µM (inactive)

Please give the measured GI50 for this molecule: NCc1ccc(-c2ccc(CN)s2)s1
> 100 µM (inactive)

====

// reported GI50 per item
System: TK-10
ASSAY METHOD TEXT: NCI tumour cell line growth inhibition, 48 h
Counter-ions that a name gives are not always drawn. Activity calls are given as the source filed them. Rule as the data show it: active = GI50 up to about 1.1 µM and inactive = higher.

Cc1cccc(N(CCC#N)S(=O)(=O)c2ccccc2)c1 = > 100 µM (inactive)

Please give the measured GI50 for this molecule: CNNCc1ccc(C(=O)NC(C)C)cc1 [PROCARBAZINE HYDROCHLORIDE]
> 500 µM (inactive)

Please give the measured GI50 for this molecule: O=C(c1cc2ccccc2[nH]1)C(O)(c1cc2ccccc2[nH]1)c1cc2ccccc2[nH]1
> 246 µM (inactive)

Please give the measured GI50 for this molecule: COC(=O)c1cc(/C=C/C(=O)Cc2ccccc2)cn1S(=O)(=O)c1ccccc1
> 100 µM (inactive)

Please give the measured GI50 for this molecule: O=[N+]([O-])c1cccc2nccc(NCCN3CCOCC3)c12
23.7 µM (inactive)

Please give the measured GI50 for this molecule: O=C1CC(c2ccccc2)Oc2ccccc21 (configuration not stated)
76.4 µM (inactive)

Please give the measured GI50 for this molecule: O=S(=O)(c1ccccc1)C1(CCC2OCCO2)C=CC2(CC1)OCCO2 (configuration not stated)
> 100 µM (inactive)

====

Test system: K562
ASSAY METHOD TEXT: NCI tumour cell line growth inhibition, 48 h
The source made the active and inactive calls. Cut-off read from the data, not from the text of the source: active = GI50 up to about 1.1 µM and inactive = higher.
Hi! Could you answer with just one of these? 1 (active), 0 (inactive)

# count of solved cases: 5
C=CCn1c2c(sc1=S)C(S)NC=N2 (stereo unspecified) = 0
CCOC(=O)CCC(=O)C1c2cccc(O)c2C(=O)c2c(O)cccc21 = 1
O=S(=O)(O)c1ccc(/N=N/c2c(O)ccc3ccccc23)cc1 = 0
N=C(N)NCC1CCCCCCN1 (stereo unspecified) = 0
CN(C)C(=S)/N=c1\ss/c(=N\C(=S)N(C)C)n1-c1ccc(Cl)cc1 = 0

Which outcome was entered for the compound O=C(/C=C/c1ccc(-c2ccccc2)cc1)NCc1ccc(C(=O)NCCc2c[nH]c3ccccc23)cc1 in this test?
0

Which outcome was entered for the compound CCOC(=O)COc1cc(-c2ccccc2)nc2cc(F)ccc12 in this test?
0

Which outcome was entered for the compound Cc1cc2nc(O)c(CCC(=O)O)nc2cc1C in this test?
0

Which outcome was entered for the compound C1CN(P2(N3CC3)=NP(N3CC3)(N3CC3)=NP(N3CC3)(N3CC3)=N2)CCO1 (stereo unspecified) in this test?
0

====

Test system: SF-295
ASSAY METHOD TEXT: NCI tumour cell line growth inhibition, 48 h
Calls of active or inactive are those of the source. Cut-off read from the data, not from the text of the source: active = GI50 up to about 1.1 µM and inactive = higher.
Hi! Could you answer with just one of these? active, inactive

# count of solved cases: 2
S=c1nc(N2CCCCC2)c2cn[nH]c2[nH]1 = inactive
CN(C)C(=S)/N=c1\ss/c(=N\C(=S)N(C)C)n1-c1ccc(Cl)cc1 = inactive

Which outcome was entered for the compound C1=C(c2ccccc2)SC(N2CCCCC2)S1 (configuration not stated) in this test?
inactive

Which outcome was entered for the compound CC(C)C1C(=O)N(c2c(F)c(F)c(F)c(F)c2F)C(=S)N1CC[S+]([O-])c1ccccc1 (configuration not stated) in this test?
inactive

Which outcome was entered for the compound CCN(CC)C(=S)N/N=C1\C(=O)Nc2ccccc21 in this test?
active

Which outcome was entered for the compound N#C/C(=C/C=C/c1ccco1)C(N)=O in this test?
inactive

Which outcome was entered for the compound NCCCCNCCCNC(=O)c1nc(-c2csc(CCN)n2)sc1Cl in this test?
inactive

Which outcome was entered for the compound O=c1ccc(=O)c2c(=O)c3ccccc3c(=O)c1=2 in this test?
inactive

Which outcome was entered for the compound C[C@H]1CC[C@@H]2[C@@H](C)C[C@H]3[C@@H]4C(C)(C)OC(=O)[C@]4(C)C(=O)[C@@]23C1=O in this test?
inactive

Which outcome was entered for the compound COc1ccc2[nH]c3c(c2c1)[C@H]1CCC(C(C)(C)C)C[C@H]1[C@H]1C(=O)N(c2ccccc2)C(=O)[C@@H]31 (some centres not stated) in this test?
inactive

====

Tested on: MDA-MB-231
ASSAY METHOD TEXT: NCI tumour cell line growth inhibition, 48 h
Active and inactive are the calls of the source. No stated cut-off is given here; in the data, active = GI50 up to about 1.1 µM and inactive = higher.
MEASURE: GI50

# example entries with known answers
CC1OC(=O)C2CC3CCCCC3C(/C=C/C3CCCC(C)N3C)C12 (stereo not given) = > 100 µM (inactive)
O=[N+]([O-])C(=C(N1CCOCC1)N1CCOCC1)/C(Cl)=C(\Cl)Br = 17.9 µM (inactive)
Clc1cccc(Cl)c1C1SCC2=Nc3ccccc3CN21 (stereo not given) = 42.9 µM (inactive)
CCN(CC)C(=S)N/N=C1\C(=O)Nc2ccccc21 = 1.14 µM (inactive)
COC(=O)[C@@H]1CCc2nc3ccccc3c(=O)n21 = > 100 µM (inactive)

Please give the measured GI50 for this compound: CCC1CN2CCc3cc(OC)c(OC)cc3C2CC1CC1c2cc(OC)c(OC)cc2CCN1C(=O)C(Cc1c[nH]c2ccccc12)NC(=O)OC(C)(C)C (stereo not given)
2.16 µM (inactive)

Please give the measured GI50 for this compound: CC(=O)Nc1c(S(=O)(=O)c2ccccc2)c(C)c(C)n1CCN(C)C
> 100 µM (inactive)

Please give the measured GI50 for this compound: CN(C)CCCNC(=O)c1c(O)c2ccccc2n(C)c1=O
86.5 µM (inactive)

Please give the measured GI50 for this compound: COc1ccc(Nc2nc3ccccc3n3cccc23)cc1OC
15.3 µM (inactive)

Please give the measured GI50 for this compound: N#CCC12CC=CCC1=C(O)C(=O)c1ccc(O)cc12 (stereo not given)
> 100 µM (inactive)

Please give the measured GI50 for this compound: CCOC(=O)NC(NC1=NCCS1)(C(=O)OCC)C(F)(F)F (stereo not given)
> 100 µM (inactive)

Please give the measured GI50 for this compound: Nc1nc(Cl)c(N)c(NC23CC4CC(CC(C4)C2)C3)n1
1.79 µM (inactive)

====

System: 786-0
ASSAY METHOD TEXT: NCI tumour cell line growth inhibition, 48 h
Calls of active or inactive are those of the source. No stated cut-off is given here; in the data, active = GI50 up to about 1.1 µM and inactive = higher.
MEASURE: GI50

# example entries with known answers
O=C1NC(Nc2ccccc2Cl)=N/C1=C\c1c(Cl)cccc1Cl = 33.4 µM (inactive)
C1CN(P2(N3CC3)=NP(N3CC3)(N3CC3)=NP(N3CC3)(N3CC3)=N2)CCO1 (stereo not drawn) = 55.3 µM (inactive)
O=[N+]([O-])c1ccc(/N=N/c2c(O)ccc3cc(S(=O)(=O)O)ccc23)cc1 = > 100 µM (inactive)
COc1c(F)c(F)c(C(=O)/C=C2\Nc3ccccc3NC2=O)c(F)c1F = 2.32 µM (inactive)
CN(C)C(=S)/N=c1\ss/c(=N\C(=S)N(C)C)n1-c1ccc(Cl)cc1 = > 100 µM (inactive)
O=C1NC2CCC(C2)C1c1ccccc1 (stereo not drawn) = > 100 µM (inactive)
N=C(N)SCc1ccc2c(c1)Sc1ccccc1O2 = 4.76 µM (inactive)
O=C(O)C1c2ccccc2C(C(=O)O)c2ccccc21 (stereo not drawn) = > 100 µM (inactive)
O=[N+]([O-])c1cccc2nccc(NCCN3CCOCC3)c12 = 25.2 µM (inactive)
O=CC[C@H]1CCc2ccccc2C12CCC(=O)CC2 = > 100 µM (inactive)

Please give the measured GI50 for this compound: NCCSc1cc(O)c2c(c1N)C(=O)c1ccccc1C2=O
29.9 µM (inactive)

Please give the measured GI50 for this compound: Cc1cc2nc(O)c(CCC(=O)O)nc2cc1C
> 100 µM (inactive)

Please give the measured GI50 for this compound: N/N=C1N=C(Cl)/C(=C/c2ccco2)N\1
61.5 µM (inactive)
